- tested.target: Recombinant human his-tagged IGF 1R extracellular domain protein (human) (UniProt P08069)
- assay.info: SPR, captured IgG, IGF-1R ECD-his analyte, dissociation pH 6
endpoint: koff (s⁻¹)

binder	endpoint	measurement.units	measurement
VRDN-02532 (antibody, V domains shown) VH: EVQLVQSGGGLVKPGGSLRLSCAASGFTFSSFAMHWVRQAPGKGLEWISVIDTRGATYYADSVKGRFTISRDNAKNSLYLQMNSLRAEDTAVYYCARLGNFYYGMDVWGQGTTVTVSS VL: EIVLTQSPGTLSVSPGERATLSCRASQHIGSSLHWYQQKPGQAPRLLIKYASQSLSGIPDRFSGSGSGTDFTLTISRLEPEDFAVYYCHQSSRLPHTFGQGTKVEIK	koff	s⁻¹	1e-06
VRDN-02504 (antibody, V domains shown) VH: EVQLVQSGGGLVKPGGSLRLSCAASGFTHSSFAMHWVRQAPGKGLEWISVIDTRGATYYADSVKGRFTISRDNAKNSLYLQMNSLRAEDTAVYYCARLGNFYYGMDVWGQGTTVTVSS VL: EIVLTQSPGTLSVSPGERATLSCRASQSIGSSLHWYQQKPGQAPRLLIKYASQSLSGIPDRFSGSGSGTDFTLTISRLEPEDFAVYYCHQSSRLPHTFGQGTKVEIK	koff	s⁻¹	1e-06
VRDN-02539 (antibody, V domains shown) VH: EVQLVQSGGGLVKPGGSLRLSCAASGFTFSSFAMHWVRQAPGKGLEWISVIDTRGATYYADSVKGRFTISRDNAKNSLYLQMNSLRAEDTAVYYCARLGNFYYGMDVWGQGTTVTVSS VL: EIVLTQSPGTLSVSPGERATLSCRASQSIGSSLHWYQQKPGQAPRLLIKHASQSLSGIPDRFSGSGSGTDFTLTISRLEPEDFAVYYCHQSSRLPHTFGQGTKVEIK	koff	s⁻¹	0.000584
